- targetEntity: human renal renin (Homo sapiens, UniProt P00797)
- Construct: human renal renin, free from acid proteolytic activity; from tissue
- Sequence (P00797 67-406): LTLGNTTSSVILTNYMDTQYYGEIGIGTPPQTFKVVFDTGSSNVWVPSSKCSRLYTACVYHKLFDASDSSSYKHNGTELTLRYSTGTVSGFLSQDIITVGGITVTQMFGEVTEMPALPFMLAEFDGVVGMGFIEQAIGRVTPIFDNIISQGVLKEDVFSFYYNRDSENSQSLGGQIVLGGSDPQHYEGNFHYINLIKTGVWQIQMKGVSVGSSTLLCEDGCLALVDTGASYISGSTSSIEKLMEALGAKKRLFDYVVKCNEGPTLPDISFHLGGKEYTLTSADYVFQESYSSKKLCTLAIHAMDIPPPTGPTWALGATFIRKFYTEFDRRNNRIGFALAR
- assayOverview: Inhibition of human renal renin in vitro (angiotensin I formed measured by radioimmunoassay)
- Format: biochemical
- setupConditions: human renal renin free from acid proteolytic activity, renin substrate human angiotensinogen, 37 degrees C, pH 6.0; read-out: IC50 (molar concentration required to cause 50% inhibition)
measuredAttribute: IC50 (nM)

Example entries and their recorded answers appear below.
compoundstructurestring=CON(C)C[C@@H](Cc1ccccc1)C(=O)N[C@@H](Cc1cscn1)C(=O)N[C@@H](CC1CCCCC1)[C@@H](O)[C@@H](O)CC(C)C targetentity="human renal renin (Homo sapiens, UniProt P00797)" resultvalue=1.8
compoundstructurestring=CC(C)C[C@H](O)[C@H](O)[C@H](CC1CCCCC1)NC(=O)[C@H](Cc1cscn1)NC(=O)[C@H](Cc1ccccc1)Cc1cscn1 targetentity="human renal renin (Homo sapiens, UniProt P00797)" resultvalue=0.68
compoundstructurestring=CC(C)C[C@H](O)[C@H](O)[C@H](CC1CCCCC1)NC(=O)[C@H](Cn1cccn1)NC(=O)[C@@H](CC(=O)N(C)CCn1cccn1)Cc1ccccc1 targetentity="human renal renin (Homo sapiens, UniProt P00797)" resultvalue=0.19
compoundstructurestring=CN=c1scc(C[C@@H](Cc2ccccc2)C(=O)N[C@@H](Cc2cscn2)C(=O)N[C@@H](CC2CCCCC2)[C@@H](O)[C@@H](O)CC(C)C)n1C targetentity="human renal renin (Homo sapiens, UniProt P00797)" resultvalue=0.43

[A] CC(C)C[C@H](O)[C@H](O)[C@H](CC1CCCCC1)NC(=O)[C@H](Cc1cscn1)NC(=O)[C@@H](CC(=O)N(C)CCc1c[nH]c2ccccc12)Cc1ccccc1
[B] CC(C)C[C@H](O)[C@H](O)[C@H](CC1CCCCC1)NC(=O)[C@H](Cc1cscn1)NC(=O)[C@@H](CC1=CSC2=NCCN12)Cc1ccccc1
[C] CCCC[C@H](NC(=O)[C@@H](CC(=O)N(C)CCn1cccn1)Cc1ccccc1)C(=O)N[C@@H](CC1CCCCC1)[C@@H](O)[C@@H](O)CC(C)C
Input: Sort the 3 molecules by IC50; largest first, smallest last. As an answer, provide the labels arranged in the order called for.
Output: B, A, C
(B: 1.1 nM, A: 0.59 nM, C: 0.33 nM)

* * *

System: UniProt:P00797 | Read-out: pIC50
pIC50: −log10 of the molar value.
measuredAttribute: pIC50

Example entries and their recorded answers appear below.
compound="CC(C)C[C@H](O)[C@H](O)[C@H](CC1CCCCC1)NC(=O)[C@H](Cn1ccnc1)NC(=O)[C@@H](CC(=O)N(C)CCn1cccn1)Cc1ccccc1 [Example 107]" resultvalue=9.05
compound="CC(C)C[C@H](O)[C@H](O)[C@H](CC1CCCCC1)NC(=O)[C@H](Cc1cscn1)NC(=O)[C@@H](CC(=O)N(C)CCc1ccccn1)Cc1ccccc1 [Example 114]" resultvalue=9.48
compound="CC(C)C[C@H](O)[C@H](O)[C@H](CC1CCCCC1)NC(=O)[C@H](Cc1cscn1)NC(=O)[C@@H](CC(=O)N(C)c1ccncc1)Cc1ccccc1 [Example 124]" resultvalue=9.47
compound="CC(C)C[C@H](NC(=O)[C@H](Cc1cscn1)NC(=O)[C@@H](CC(=O)N(C)CCn1cccn1)Cc1ccccc1)[C@@H](O)[C@@H](O)CC(C)C [Example 111]" resultvalue=9.31
compound="CC(C)C[C@H](O)[C@H](O)[C@H](CC1CCCCC1)NC(=O)[C@H](Cn1cccn1)NC(=O)[C@@H](CC(=O)N(C)CCN1CCOCC1)Cc1ccccc1 [Example 140]" resultvalue=9.92

[a] CC(C)C[C@H](O)[C@H](O)[C@H](CC1CCCCC1)NC(=O)[C@H](Cc1cscn1)NC(=O)[C@@H](CC(=O)N(C)CCN1CCN(C)CC1)Cc1ccccc1 [Example 116]
[b] CC(C)C[C@H](O)[C@H](O)[C@H](CC1CCCCC1)NC(=O)[C@H](Cc1cscn1)NC(=O)[C@H](Cc1ccccc1)N1CCOCC1 [Example 113]
Input: Min pIC50? a | b State your choice using its label.
Output: a
